- experiment: activity coefficient (dimensionless); of the first substance listed, at infinite dilution; xn = mol fraction of the nth substance listed
- conditionDetails: 318.15 K; Liquid; Chromatography; x1 = 0
reportedProperty: activity coefficient
When you answer, write just the number.

Illustrative cases are given below, each with its answer.
- compound: "c1ccccc1 [benzene] + CCCC[N+]1(C)CCCC1.O=S(=O)([O-])C(F)(F)F"
  activity coefficient: 1.46
- compound: "CCCCCCCCCC [decane] + CCCC[N+]1(C)CCCC1.O=S(=O)([O-])C(F)(F)F"
  activity coefficient: 157
- compound: "CCc1ccccc1 [ethylbenzene] + CCCC[N+]1(C)CCCC1.O=S(=O)([O-])C(F)(F)F"
  activity coefficient: 3.46

Let us move to another entry and its activity coefficient.
Measured activity coefficient of Cc1cccc(C)c1 [1,3-dimethylbenzene] + CCCC[N+]1(C)CCCC1.O=S(=O)([O-])C(F)(F)F : 3.45
